B1: TPR t1 (parent)
chain: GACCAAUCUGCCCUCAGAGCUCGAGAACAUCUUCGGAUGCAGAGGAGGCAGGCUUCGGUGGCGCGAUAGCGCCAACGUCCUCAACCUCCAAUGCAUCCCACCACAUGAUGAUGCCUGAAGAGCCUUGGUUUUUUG

# Variants of: B1
# test.details: polymerase ribozyme fitness, log enrichment relative to wild type (log ratio); higher = more active; in vitro selection for triplet polymerase activity
property: polymerase ribozyme fitness (log ratio)
Quick one: just the number, no unit, thanks!

Item A24C G35A U55G C115U G127U has what recorded polymerase ribozyme fitness (log ratio)?
-6.12

For the variant C11U C13U , what polymerase ribozyme fitness (log ratio) is on record?
-1.63

Give the measured polymerase ribozyme fitness (log ratio) of C8A G36U G42A C62U .
-2.62

I would be grateful if you could share the reported polymerase ribozyme fitness (log ratio) for C53A G63U .
-1.77

Looking for the measured polymerase ribozyme fitness (log ratio) of C8G A90C A91U A95G , can you help?
-1.14

Returns the measured polymerase ribozyme fitness (log ratio) for the input variant. Input: C34U U106A
-4.95

Item C49U G93A has what recorded polymerase ribozyme fitness (log ratio)?
-1.33

State the recorded polymerase ribozyme fitness (log ratio) for this entry: A74G G77U C123U
0.945

Query: polymerase ribozyme fitness (log ratio); subject: G93C C114G
-4.17

Returns the measured polymerase ribozyme fitness (log ratio) for the input variant. Input: G93A G113U C114G
-2.9

For C70G C115G , what is its reported polymerase ribozyme fitness (log ratio)?
-3.68

If you can, please state the reported polymerase ribozyme fitness (log ratio) value of G69A G120U U130A .
-2.09

Fill in the blank: the reported polymerase ribozyme fitness (log ratio) of G25A C62A C86U C102U G120C is ____.
-7.36

Entry U78C C85G has what polymerase ribozyme fitness (log ratio)?
-1.82

Which polymerase ribozyme fitness (log ratio) value belongs to C12A C53G G69A C115A U116A ?
-7.23

So what does the record say about polymerase ribozyme fitness (log ratio) for C13U C73U ?
-0.351

Which polymerase ribozyme fitness (log ratio) is listed for C8G G48U C72A ?
0.0646

What does the data say about its polymerase ribozyme fitness (log ratio)? Entry: C13U C40G G42A C79A
-4.76

For A68G A100U U133A , what is its reported polymerase ribozyme fitness (log ratio)?
-3.27

Entry under review: C15A G61U C89U G122U C124G G135A . Reported polymerase ribozyme fitness (log ratio)?
-0.759

# get_value(readout='polymerase ribozyme fitness (log ratio)', item= U55G C56A A83G )
-1.72

Item C115A U129C has what recorded polymerase ribozyme fitness (log ratio)?
-2.62
